biological target: GPR40 (UniProt O14842); experiment: GPR40 Calcium Flux Assay; details: transfected HEK293 cells stably expressing human or rat GPR40; species not given
Assay endpoint: EC50 (µM)

INSERT INTO results (chemical_structure, assay_endpoint, numeric_value) VALUES
  ('O=C(O)CCc1ccc(OCC2=C(Cc3ccc(Cl)cc3)CCOC2)cc1', 'EC50', 3.19);

[P] O=C(O)CCc1ccc(OCC2=C(C3CCCC3)COCC2)cc1
[Q] O=C(O)CCc1ccc(OCC2=C(C3CCCC3)COC2)cc1
[R] O=C(O)CCc1ccc(OCC2=C(c3ccc(OC(F)(F)F)cc3)CCOC2)cc1C(F)(F)F
[S] C=C(C1=C(COc2ccc(CCC(=O)O)c(C(F)(F)F)c2)COCC1)c1ccccc1Cl
[T] C=C(C1=C(COc2ccc(CCC(=O)O)c(C(F)(F)F)c2)COCC1)c1ccc(F)cc1
Enquiry: Ordering criterion: EC50; begin with the maximum. Provide the ranking by listing each label in its place in the requested order.
Return: Q, P, R, T, S
